System: NCI/ADR-RES ovarian
Assay: NCI-60 one-dose screen, 48 h (100 = growth as untreated, 0 = no growth, -100 = all killed)
Conditions: 10 µM unless noted
Method: Growth inhibition of the NCI/ADR-RES human […] tumor cell line is measured as a screen for anti-cancer activity. Cells are grown in 96 well plates and exposed to the test compound for 48 hours. Compounds are tested at a single concentration, which is 10^-5 M for most compounds. The reported endpoint is percent growth (GI% or GIPRCNT), where numbers from 0 - 100% represent growth inhibition, and numbers from -100% - 0 represent cell death. For example, a value of 40 represents 60% growth inhibition. […]
About 83,000 compounds went through this panel and 20% of them were active in at least one assay; those are over-represented in the sample as a whole. Calls of active or inactive are those of the source. How the source made its calls: active means growth percent below 10; inactive means the rest.
Property: growth; scope: individual compounds

Nc1cc2c(cc1Br)[nH]c(=O)c1ccccc12 :: 63% (inactive)

Requested field: growth. Item: C#CCCCCCCC[C@@H]1OC(=O)[C@H]([C@@H](C)CC)NC(=O)[C@@H]([C@@H](C)CC)NC(=O)CC(=O)[C@@H]1C
99.2% (inactive)

Requested field: growth. Item: CSc1nc(N)n2nccc2n1
105% (inactive)

Requested field: growth. Item: CCN(CC)c1ccc2nc3ccc(N=Nc4ccc(O)cc4)cc3[n+](-c3ccccc3)c2c1
101% (inactive)

Requested field: growth. Item: COc1cc(/C=C/C(=O)c2ccc(F)cc2)ccc1OCCCCOc1cc2c(cc1OC)C(=O)N1CCCC1C=N2 (stereo not given)
27.1% (inactive)

Requested field: growth. Item: CC(C)OC(=O)[C@H](C)N[P@@](=O)(OC[C@@]1(C)O[C@@H](n2cc(F)c(N)nc2=O)C[C@@H]1O[P@](=O)(N[C@@H](C)C(=O)OC(C)C)Oc1ccccc1)Oc1ccccc1
103% (inactive)

Requested field: growth. Item: Cc1c([C@H](C(Cl)Cl)[C@H](O)[C@H]2C[C@H](C)C(=O)O2)ccc2c1C(=O)[C@H]1[C@H]2C[C@@H](Br)[C@@]23O[C@@H](CO[C@H]2O)CC13C (stereo not given in full)
30.8% (inactive)

Requested field: growth. Item: CC(=O)Oc1cc2ccccc2cc1C(C)C
116% (inactive)

Requested field: growth. Item: N#Cc1ccc(OCc2nc(N)nc(N)c2-c2ccc(Cl)c(Cl)c2)cc1
38.9% (inactive)

Requested field: growth. Item: CCOC(=O)c1cc(C(=O)c2ccc(Br)cc2)n2cc(C)cc(C)c12
99.6% (inactive)

Requested field: growth. Item: CCCCCCCCCCCCc1ccc([N+](CC)(CC)CC)cc1
103% (inactive)

Requested field: growth. Item: CCCNC(=O)Oc1ccc(/C(=C(/C)Cc2ccc(OC)cc2)c2ccc(OCCN3CCCC3)cc2)cc1
75.9% (inactive)

Requested field: growth. Item: c1ccc(Nc2ccccn2)cc1
109% (inactive)

Requested field: growth. Item: COC(c1ccccc1)C(Br)C(=O)c1ccccc1 (stereo not given)
104% (inactive)

Requested field: growth. Item: COc1ccc(-c2nnc(SCC(=O)Nc3ccc(C(=O)/C=C/c4cc(OC)c(OC)c(OC)c4)cc3)n2-c2ccccc2)cc1OC
46% [100 µM] (inactive)

Requested field: growth. Item: CCC1(CC)C(OC)NC(Br)=C(C#N)C1(C#N)C(N)=O (stereo not given)
124% (inactive)

Requested field: growth. Item: O=C(NC1CCN(Cc2ccccc2)CC1)c1cc(-c2cccnc2)nc2ccc(Cl)cc12
67% (inactive)

Requested field: growth. Item: O=C(N/N=C\c1ccc(Cl)cc1)C(=O)N/N=C\c1ccc(Cl)cc1
104% (inactive)

Requested field: growth. Item: Br/C(=N\Nc1nn[nH]n1)c1ccccc1
100% (inactive)

Requested field: growth. Item: COc1ccc(NC(=O)/C=C(C)/C=C/C=C(C)/C=C/C2=C(C)CCCC2(C)C)cc1
80.1% (inactive)

Requested field: growth. Item: FC(F)(F)c1cccc(-c2[nH]ncc2-c2nnnn2-c2ccccc2)c1
12.2% (inactive)

Requested field: growth. Item: CCCCCSc1ccc2nc(NC(=O)OCCC)sc2c1
22.7% (inactive)

Requested field: growth. Item: COc1ccc(Oc2[nH]n(C3=Nc4ccccc4Sc4ccccc43)c(=O)c2C#N)cc1
87% (inactive)

Requested field: growth. Item: Brc1c(-c2ccncc2)nc2n1CCS2
107% (inactive)

Requested field: growth. Item: Cc1[nH]n(C(=S)Nc2nc3cc(Cl)c(F)cc3s2)c(=O)c1N=Nc1ccc(F)c(Cl)c1
103% (inactive)

These entries and their values trace back to PubChem BioAssay (NCI).
